Origin of the recorded values: patent US8852587B2

# system_name: PrP^Sc (Mus musculus, UniProt P04925)
# Sequence (P04925 23-230 limits assumed): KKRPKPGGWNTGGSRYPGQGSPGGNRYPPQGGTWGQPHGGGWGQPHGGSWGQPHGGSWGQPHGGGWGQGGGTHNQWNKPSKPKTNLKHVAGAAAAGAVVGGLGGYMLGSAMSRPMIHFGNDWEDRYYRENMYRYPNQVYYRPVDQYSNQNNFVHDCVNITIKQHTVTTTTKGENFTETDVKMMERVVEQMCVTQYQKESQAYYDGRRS
# Format: binding
# measurement_conditions: affinity for PrPSc pulldown compared to peptide LH3 (CDR3H)
recorded_metric: Affinity

>>> df
                residue_codes                            system_name  measured_result
0   YFCARWNWRRDAMDYWG [LH3R9]  PrP^Sc (Mus musculus, UniProt P04925)              (+)
1  YFCARWNWERRAMDYWG [LH3R11]  PrP^Sc (Mus musculus, UniProt P04925)                +
2   YFCARWAWERDAMDYWG [LH3A7]  PrP^Sc (Mus musculus, UniProt P04925)              (+)
3  YFCARWNWERDAADYWG [LH3A13]  PrP^Sc (Mus musculus, UniProt P04925)                +
4  YFCARWNWERDAMAYWG [LH3A14]  PrP^Sc (Mus musculus, UniProt P04925)              (+)

----------
# system_name: PrP^Sc (Mus musculus)
# Assay type: binding
# measurement_conditions: pull-down, compared to peptide LH3 (CDR3H)
recorded_metric: Specificity

>>> print(df.to_string())
                residue_codes  recorded_metric  measured_result
0   YFCARWAWERDAMDYWG [LH3A7]      Specificity           PrP^Sc
1  YFCARWNWERDAMAYWG [LH3A14]      Specificity           PrP^Sc
2  YFCARWNWERDAADYWG [LH3A13]      Specificity           PrP^Sc
3  YFCARWNWEADAMDYWG [LH3A10]      Specificity            PrP^C
4   YFCARWNWRRDAMDYWG [LH3R9]      Specificity           PrP^Sc
5  YFCARWNWERRAMDYWG [LH3R11]      Specificity           PrP^Sc
